- SYSTEM NAME: T1, RHPN1, Q8TCX5
- T1 sequence (Q8TCX5 508-602, limits assumed, looked up): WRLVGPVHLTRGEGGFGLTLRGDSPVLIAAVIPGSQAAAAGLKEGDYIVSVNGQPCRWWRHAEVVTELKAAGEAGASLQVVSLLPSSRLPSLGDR
- ASSAY REMARKS: holdup assay
- Set-up: key: below the threshold = too weak to quantify, mostly under pKd 3.1 to 4
- RUN PARAMETERS: plain residues with an end cap or a label only (N-terminal biotin on a linker: ado-ado)
ASSAY ENDPOINT: pKd
One number for each entry.

Sample records with pKd:
{"BINDER": "STYCDYTIEI [FAM71C, Q8NEG0]", "MEASURED": 3.47}
{"BINDER": "IKLETKKTKL [SLC15A2, Q16348]", "MEASURED": 3.76}
{"BINDER": "IQISELETNV [SLC1A7, O00341]", "MEASURED": 4.88}
{"BINDER": "VYEVPVETKF [SLC26A3, P40879]", "MEASURED": 4.03}

// next entry
### Prompt What value of pKd has been reported for the following binder? QRYPGNQTTC [CCL24, O00175]
### Response 4.2
